Assay: NCI Yeast Anticancer Drug Screen. Data for the sgs1 mgt1 strain (AID 161)
Details: S. cerevisiae sgs1 mgt1 strain, at 50.0 µM, hits give high values
This is part of a sample that, as a whole, favours compounds with a hit. Of some 79,000 tested, about 15% had one in any assay.
Please mark YES if the recorded growth inhibition is equal to or greater than 40%, and NO if it falls below.

1) CC1CCCN(CCc2ccccc2)CC1 (configuration not stated) : NO
2) CC(Br)CN(CC(C)Br)c1ccc2c(c1)Cc1ccccc1-2 (configuration not stated) : YES
3) CC(NCCN(C)C)C1CC2CCCCN2C1 (configuration not stated) : NO
4) O=[N+]([O-])C(Br)CO (configuration not stated) : YES
5) Cc1ccc2c(c1N)C(=O)c1ccccc1C2=O : YES
6) C[N+](C)(C)CC1CCC(C[N+](C)(C)C)C1=O (configuration not stated) : NO
7) Cc1ccc2nc3sc(=O)sc3nc2c1 : YES
8) [C-]#[O+].[C-]#[O+].[Ir].[O-]c1ccc2ccccc2c1N=Nc1ccccc1 : YES
9) CCCCCCCCCCCCCCCc1cccc(O)c1O : YES
10) CCCCCCCCCCCC[As](=O)(O)O : YES
11) C[C@]12CC/C(=N\OC(=O)Nc3ccccc3)C=C1CC[C@@H]1C2CC[C@@]2(C)C1CC[C@@H]2OC(=O)Nc1ccccc1 (some centres not stated) : NO
